B1: VH:VL chains; a variant is named by its letters at X, in order (parent)
chain 1: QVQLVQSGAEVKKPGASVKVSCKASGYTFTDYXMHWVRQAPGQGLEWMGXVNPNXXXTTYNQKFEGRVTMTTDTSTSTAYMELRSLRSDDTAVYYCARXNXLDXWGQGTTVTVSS
chain 2: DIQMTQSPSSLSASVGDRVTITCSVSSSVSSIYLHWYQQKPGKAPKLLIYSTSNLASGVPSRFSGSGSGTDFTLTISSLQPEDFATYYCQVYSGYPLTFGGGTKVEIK

Variants of: B1
measurementProtocol: yeast display scFab, FACS + sequencing
readoutLabel: non-specific binding call

Worked cases, answers included:
FRRRDAAF
binds
YAGRGDAD
no binding
FRGRGSAF
binds
VAEKGDGV
no binding
DGAKGDGV
no binding
SGEGGAGA
no binding
VKEKGDSA
no binding
DAEGGSLD
no binding

# batch: return non-specific binding call for each of the 2 variants below
1. FKTKNYVV
2. SEGADAVA chain 1 G106S

// result
1. binds
2. no binding
